# Measurement Target: human CTPS1 (Homo sapiens (Human), UniProt P17812)
# Sequence (P17812 whole entry): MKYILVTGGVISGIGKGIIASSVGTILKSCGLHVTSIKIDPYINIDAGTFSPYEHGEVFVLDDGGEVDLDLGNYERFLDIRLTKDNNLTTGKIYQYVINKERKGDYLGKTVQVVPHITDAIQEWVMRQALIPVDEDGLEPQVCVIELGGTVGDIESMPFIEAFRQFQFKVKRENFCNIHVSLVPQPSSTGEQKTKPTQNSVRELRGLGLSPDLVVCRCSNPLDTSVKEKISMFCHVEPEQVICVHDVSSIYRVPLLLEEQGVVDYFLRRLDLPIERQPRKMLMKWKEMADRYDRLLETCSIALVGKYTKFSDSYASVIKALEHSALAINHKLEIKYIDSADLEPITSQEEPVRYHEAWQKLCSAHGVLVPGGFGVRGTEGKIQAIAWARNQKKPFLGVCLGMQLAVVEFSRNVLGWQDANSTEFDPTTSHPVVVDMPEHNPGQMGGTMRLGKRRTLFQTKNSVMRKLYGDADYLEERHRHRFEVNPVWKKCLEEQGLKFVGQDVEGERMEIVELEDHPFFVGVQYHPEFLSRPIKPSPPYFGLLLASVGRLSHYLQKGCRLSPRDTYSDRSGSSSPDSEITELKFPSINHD
# Experiment: hCTPS1 biochemical assay (ADP-Glo)
# Test Conditions: hCTPS1 25 nM, ATP 120 uM, UTP 160 uM, GTP 60 uM, L-Glutamine 100 uM, 25 degrees C
pIC50: −log10 of the molar value.
Below: a set of entries, each annotated with reported pIC50.

Examples with their reported pIC50 follow.
{"Molecule": "CCOc1cncc(-c2cnc(C(=O)N[C@H](CN3CCC3)c3cc(NS(=O)(=O)C4CC4)ccn3)s2)n1 (single isomer, unassigned)", "Reading": "> 7.00"}
{"Molecule": "CCOc1cncc(-c2cnc(C(=O)N[C@@H](c3cc(NS(=O)(=O)C4CC4)ccn3)[C@H]3CCOC3)s2)n1 (single isomer, unassigned)", "Reading": "> 7.00"}
{"Molecule": "CCOc1cncc(-c2cnc(C(=O)N[C@@H](CN3CCC(N(C)C)CC3)c3cc(NS(=O)(=O)C4CC4)ccn3)s2)n1 (single isomer, unassigned)", "Reading": "> 7.00"}
{"Molecule": "C[C@H]1Cc2nc(C(=O)NCc3cc(NS(=O)(=O)C4CC4)ccn3)cnc2N(C2CCC2)C1", "Reading": "≤ 6.00"}

Next item in the queue.
Request: Look up pIC50 for this molecule: CCOc1cncc(-c2cnc(C(=O)NC(CCOC)c3cc(NS(=O)(=O)C4CC4)ccn3)s2)n1 (centres unmarked)
Response: > 7.00

====

Target or system UniProtKB P17812: recorded IC50 listed per item.

Example entries begin here.
{"Compound": "CCOc1cncc(-c2ccc(C(=O)NCc3cc(NS(=O)(=O)C(F)F)ccn3)nc2)n1", "Measurement Target": "UniProtKB P17812", "Reading": "< 100 nM"}
{"Compound": "O=C(NCc1cc(NS(=O)(=O)C2CC2)ccn1)c1ncc(-c2cncc(OCC(F)(F)F)n2)s1", "Measurement Target": "UniProtKB P17812", "Reading": "< 100 nM"}
{"Compound": "CCC(NC(=O)c1ncc(-c2cnn3ccc(Cl)cc23)s1)c1cc(NS(=O)(=O)C2CC2)ccn1 (stereo not shown)", "Measurement Target": "UniProtKB P17812", "Reading": "< 100 nM"}

Okay, now this compound:
Request: Endpoint output: IC50 of CCOc1cncc(-c2cccc(C(=O)NCc3cccc(NS(=O)(=O)C(F)F)c3)c2)n1 . Value?
Response: ≥ 1000 nM

====

// reported IC50 per item
# Measurement Target: human CTPS1 (Homo sapiens (Human), UniProt P17812)

Example entries begin here.
{"Molecule": "CCOc1cncc(-c2cnc(C(=O)N[C@@H](CCN(C)C)c3cc(NS(=O)(=O)C4CC4)ccn3)s2)n1 [I-190]", "Measurement Target": "human CTPS1 (Homo sapiens (Human), UniProt P17812)", "Reading": "< 100 nM"}
{"Molecule": "CC[C@H]1CCN(c2ncc(C(=O)NCc3cc(NS(=O)(=O)C4CC4)ccn3)nc2C)C1 [I-81]", "Measurement Target": "human CTPS1 (Homo sapiens (Human), UniProt P17812)", "Reading": "≥ 1000 nM"}
{"Molecule": "CCOc1cncc(-c2cnc(C(=O)NCc3cc(NS(=O)(=O)C4CC4)ccn3)s2)c1 [I-242]", "Measurement Target": "human CTPS1 (Homo sapiens (Human), UniProt P17812)", "Reading": "< 100 nM"}

Request: Return IC50 measured with human CTPS1 (Homo sapiens (Human), UniProt P17812) given this molecule: CCOc1cncc(-c2cnc(C(=O)NCc3cc(F)cc(NS(=O)(=O)C4CC4)c3F)s2)n1 [I-250]
Response: < 100 nM

Request: Could you share what IC50 was measured for CCOc1cncc(-c2cnc(C(=O)N[C@H](COC)c3cc(NS(=O)(=O)C4CC4)ccn3)s2)n1 [I-188] , tested on human CTPS1 (Homo sapiens (Human), UniProt P17812)?
Response: < 100 nM

Request: Record lookup: for human CTPS1 (Homo sapiens (Human), UniProt P17812), what IC50 belongs to CCOc1cncc(-n2cnc(C(=O)NC3(c4cccc(NS(=O)(=O)C(F)F)c4)CC3)c2)n1 [I-283] ?
Response: < 100 nM
